The following molecules are listed with their measured inhibition values.
- Assay procedure: inhibitors of Sendai virus-induced IRF3 signaling, primary screen, TLR/RLR signaling modifier project, cell-based, Sendai virus stimulus, luciferase, 10K MLSCN set (AID 602276);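 note: firefly luciferase from ISG56 promoter only with Renilla not read in this screen; 0% = Sendai virus plus DMSO and 100% = medium plus DMSO without virus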
- Condition context: HEK293 RL24 IRF3 luciferase reporter, at 10 µM, hits give high values
Activity calls are given as the source filed them.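 Rule for the calls: active = inhibition at or above 50% at 10 µM; inactive = inhibition below 50%.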

# Molecule, inhibition
data = [
    ("CCCc1nnc(NC(=O)CCC(=O)N2CCN(CCOc3ccc(C)cc3)CC2)s1", "0.418% (inactive)"),
    ("O=C(Cn1ncc2c1-c1ccccc1OC2)N1CCc2ccccc21", "5.8% (inactive)"),
    ("COc1ccc2nc3oc(C(=O)NC4CCN(Cc5ccccc5)CC4)cc3cc2c1", "-32.2% (inactive)"),
    ("C=CCSc1nnc(NC(=O)c2ccc(S(=O)(=O)NCC3CCCO3)cc2)s1 (stereo not given)", "4.11% (inactive)"),
    ("Cc1ccc(N2CCN(S(=O)(=O)N(C)C)CC2)c(C)c1", "2.52% (inactive)"),
    ("Cc1ccc(-c2nnc(N3CCN(C(=O)CN4C(=O)c5ccccc5C4=O)CC3)c3ccccc23)cc1", "8.25% (inactive)"),
    ("C=Cn1nc(C)c2ccccc2c1=O", "3.73% (inactive)"),
    ("CN1/C(=C\\C(=O)C(F)F)C(C)(C)c2ccccc21", "20.8% (inactive)"),
    ("Cc1ccc(C)c(S(=O)(=O)C(C#N)c2nc3ccccc3nc2N2CC(C)OC(C)C2)c1 (stereo not given)", "32.7% (inactive)"),
    ("COC(=O)CC(C(=O)Nc1cc(C(=O)OC)cc(C(=O)OC)c1)N1CCN(C)CC1 (stereo not given)", "-2.88% (inactive)"),
    ("COc1ccc(-c2nc3c(n2O)CCC/C3=N\\O)cc1", "-16.5% (inactive)"),
    ("CCCn1c(C)cc(C(=O)COc2ncnc3sccc23)c1C", "-64% (inactive)"),
    ("COc1cc(Br)cc(CN2CCN(C/C=C/c3ccccc3)CC2)c1O", "-0.336% (inactive)"),
    ("CCOC(=O)c1cnn(-c2cc(C)c3cc(C)cc(C)c3n2)c1N", "-17.1% (inactive)"),
    ("COc1ccccc1C(=O)N1CCN(C(=O)COc2cccc(C)c2)CC1", "14% (inactive)"),
    ("Cc1ccc2[nH]c3c(c2c1)CCc1cn[nH]c1-3", "-22.4% (inactive)"),
    ("CCOC(=O)C1(c2ccccc2)NC(c2ccc(N(C)C)cc2)C2C(=O)N(C)C(=O)C21 (stereo not given)", "14.4% (inactive)"),
    ("O=c1c2ccccc2nc(SCc2cccc(F)c2)n1Cc1ccco1", "9.34% (inactive)"),
    ("COCCCN1C(=O)C(=O)/C(=C(/O)c2ccc(OCC(C)C)cc2C)C1c1cccnc1 (stereo not given)", "7.86% (inactive)"),
    ("O=c1[nH]c(NCc2ccco2)nnc1Cc1ccccc1Cl", "6.89% (inactive)"),
    ("Cn1cnc(S(=O)(=O)NCc2cccs2)c1", "-2.25% (inactive)"),
    ("CCCOc1ccc(C2C(C(=O)OC)=CN(CCOC)C=C2C(=O)OC)cc1", "15.3% (inactive)"),
    ("N#CC1=C(SCC(=O)c2cc3ccccc3oc2=O)NC(=O)C(C#N)C12CCCC2 (stereo not given)", "23% (inactive)"),
    ("CS(=O)(=O)N(CC(=O)NCc1ccncc1)Cc1ccc(Cl)cc1", "17.3% (inactive)"),
    ("CC(C)CCNC(=O)Cn1c(NCCC(C)C)nc2c1c(=O)n(C)c(=O)n2C", "3.06% (inactive)"),
    ("CCOc1ccc(NC(=O)C2CC(=O)N(CC)C(=Nc3ccc4c(c3)OCO4)S2)cc1 (stereo not given)", "-1.73% (inactive)"),
    ("COc1cccc(-c2noc(C3CCCN(C(=O)Cc4ccccc4)C3)n2)c1 (stereo not given)", "9.8% (inactive)"),
    ("COc1ccc(C(C)=O)c(OC(=O)c2ccc(OC)c(OC)c2)c1", "13.2% (inactive)"),
    ("Cc1cccc(CN2CCC(CNC(=O)C3CCCN(S(=O)(=O)c4cnc[nH]4)C3)CC2)c1 (stereo not given)", "18.8% (inactive)"),
    ("COc1ccc(C)cc1NC(=O)CCC(=O)Nc1ccc2nc(N3CCN(C)CC3)cc(C)c2c1", "-21.1% (inactive)"),
    ("O=S1(=O)C=C(Oc2ccc(F)cc2)c2ccccc21", "5.55% (inactive)"),
    ("CCN(CC)C(=O)CSc1nnc(-c2cc(OC)cc(OC)c2)o1", "8.18% (inactive)"),
    ("O=C(NCC(c1cccnc1)N1CCOCC1)c1cccs1 (stereo not given)", "5.49% (inactive)"),
    ("CC(C)OC(=O)CSc1nc2cccnc2n1C1CCCCC1", "11.2% (inactive)"),
    ("Nc1ncnc2oc(-c3ccco3)c(-c3ccco3)c12", "-5.47% (inactive)"),
    ("CC1(C)NC(=O)N(CC(O)CN2CCCC2)C1=O (stereo not given)", "6.37% (inactive)"),
    ("O=C(c1cccnc1)N1CCc2ccccc21", "10% (inactive)"),
    ("CCOc1ccc(NC(=O)C(C)Sc2nnc(C)n2C)cc1 (stereo not given)", "-2.49% (inactive)"),
    ("COc1ccc2cc(C#N)c(SCC(=O)N3CCCC3)nc2c1", "-0.637% (inactive)"),
    ("CCN1CCN(C(=O)c2oc(=O)c3ccccc3c2-c2ccc(C)cc2)CC1", "10.4% (inactive)"),
    ("CS(=O)(=O)N1CCC(C(=O)NCCC2=CCCCC2)CC1", "12.6% (inactive)"),
    ("CCOC(=O)c1cc2c(=O)n3ccccc3nc2n(Cc2ccccc2)c1=N", "6.32% (inactive)"),
    ("CNC(=O)c1ccc(N(Cc2ccccc2C)S(C)(=O)=O)cc1", "11.8% (inactive)"),
    ("Cc1csc2ncc(C(=O)N3CCc4ccccc43)c(=O)n12", "11.1% (inactive)"),
    ("CCN(CC)S(=O)(=O)c1ccc(NC2CCCc3ccccc32)nc1 (stereo not given)", "11.9% (inactive)"),
]

Just for reference, PubChem BioAssay is where these values come from.
